Just for reference, ChEMBL document CHEMBL3272192 is where these values come from.

species on record: Rattus norvegicus; assay: Displacement of radiolabelled L-T3 from thyroid hormone receptor in intact rat hepatic nuclei relative to T3
The following compounds are shown together with reported RBA values.

Example results:
INSERT INTO results (compound, readout_value) VALUES
  ('CC(C)c1cc(Oc2c(I)cc(CC(N)C(=O)O)cc2I)ccc1O (configuration not stated)', '100%'),
  ('NC(Cc1cc(I)c(Oc2cc(I)c(O)c(I)c2)c(I)c1)C(=O)O (configuration not stated)', '12.5%');

Requested field: RBA. Item: Cc1cc(Oc2c(I)cc(CC(N)C(=O)O)cc2I)cc(C)c1O (configuration not stated)
6.2%

Requested field: RBA. Item: NC(Cc1ccc(Oc2ccc(O)c(I)c2)c(I)c1)C(=O)O (configuration not stated)
0.5%

Requested field: RBA. Item: NC(Cc1ccc(Oc2cc(I)c(O)c(I)c2)c(I)c1)C(=O)O (configuration not stated)
0.1%

Requested field: RBA. Item: NC(Cc1cc(I)c(Cc2ccc(O)c(I)c2)c(I)c1)C(=O)O (configuration not stated)
250%

Requested field: RBA. Item: CCc1cc(Oc2c(I)cc(CC(N)C(=O)O)cc2I)ccc1O (configuration not stated)
21%

Requested field: RBA. Item: NC(Cc1cc(I)c(Sc2ccc(O)cc2)c(I)c1)C(=O)O (configuration not stated)
1.3%

Requested field: RBA. Item: NC(Cc1cc(I)c(Oc2ccc(O)cc2)c(I)c1)C(=O)O (configuration not stated)
0.3%

Requested field: RBA. Item: Cc1c(O)ccc(Oc2c(I)cc(CC(N)C(=O)O)cc2I)c1C (configuration not stated)
1.1%

Requested field: RBA. Item: Cc1cc(Oc2c(I)cc(CC(N)C(=O)O)cc2I)ccc1O (configuration not stated)
13.5%

Requested field: RBA. Item: Cc1cc(Oc2c(C)cc(CC(N)C(=O)O)cc2C)cc(C)c1O (configuration not stated)
0.1%

Requested field: RBA. Item: NC(Cc1cc(I)c(Oc2cccc(I)c2)c(I)c1)C(=O)O (configuration not stated)
0.4%

Requested field: RBA. Item: NC(Cc1cc(I)c(Oc2cc(Cl)c(O)c(Cl)c2)c(I)c1)C(=O)O (configuration not stated)
4.5%

Requested field: RBA. Item: Cc1cccc(Oc2c(I)cc(CC(N)C(=O)O)cc2I)c1 (configuration not stated)
0.2%

Requested field: RBA. Item: NC(Cc1cc(Br)c(Oc2ccc(O)c(I)c2)c(I)c1)C(=O)O (configuration not stated)
1.4%

Requested field: RBA. Item: CC(C)c1cc(Oc2c(I)cc(CC(N)C(=O)O)cc2I)cc(C(C)C)c1O (configuration not stated)
1.4%

----------
organism: Rattus norvegicus; assay: Displacement of radiolabelled L-T3 from thyroid hormone receptor in intact rat hepatic nuclei relative to T3
measurement.type: RBA (%)
Number in %, nothing else.

INSERT INTO measurements (compound, unit_text, readout_value) VALUES
  ('NC(Cc1cc(I)c(Oc2cccc(C(F)(F)F)c2)c(I)c1)C(=O)O (stereo unspecified)', '%', 0.2);

Requested field: RBA. Item: NC(Cc1cc(I)c(Oc2ccc(O)c(Cl)c2)c(I)c1)C(=O)O (stereo unspecified)
6.2

Requested field: RBA. Item: NC(Cc1cc(I)c(Cc2cc(I)c(O)c(I)c2)c(I)c1)C(=O)O (stereo unspecified)
2.6

Requested field: RBA. Item: CC(C)c1cc(CC(N)C(=O)O)cc(C(C)C)c1Oc1ccc(O)c(I)c1 (stereo unspecified)
0.2

Requested field: RBA. Item: NC(Cc1cc(I)c(Oc2ccc(O)c(C3CCCCC3)c2)c(I)c1)C(=O)O (stereo unspecified)
1.4

Requested field: RBA. Item: NC(Cc1cc(I)c(Oc2ccc(O)c3c2CCCC3)c(I)c1)C(=O)O (stereo unspecified)
8

Requested field: RBA. Item: NC(Cc1cc(I)c(Sc2ccc(O)c(I)c2)c(I)c1)C(=O)O (stereo unspecified)
100

Requested field: RBA. Item: CC(C)Cc1cc(Oc2c(I)cc(CC(N)C(=O)O)cc2I)ccc1O (stereo unspecified)
20

Requested field: RBA. Item: Cc1cc(Oc2c(C)cc(CC(N)C(=O)O)cc2C)ccc1O (stereo unspecified)
0.1

Requested field: RBA. Item: NC(Cc1cc(I)c(Oc2ccc(O)c3ccccc23)c(I)c1)C(=O)O (stereo unspecified)
8

Requested field: RBA. Item: Nc1ccc(Oc2c(I)cc(CC(N)C(=O)O)cc2I)cc1 (stereo unspecified)
0.76

----------
The following molecules are shown together with reported RBA values.
Target: Thyroxine-binding globulin (Homo sapiens) (UniProt P05543)
Sequence (whole entry): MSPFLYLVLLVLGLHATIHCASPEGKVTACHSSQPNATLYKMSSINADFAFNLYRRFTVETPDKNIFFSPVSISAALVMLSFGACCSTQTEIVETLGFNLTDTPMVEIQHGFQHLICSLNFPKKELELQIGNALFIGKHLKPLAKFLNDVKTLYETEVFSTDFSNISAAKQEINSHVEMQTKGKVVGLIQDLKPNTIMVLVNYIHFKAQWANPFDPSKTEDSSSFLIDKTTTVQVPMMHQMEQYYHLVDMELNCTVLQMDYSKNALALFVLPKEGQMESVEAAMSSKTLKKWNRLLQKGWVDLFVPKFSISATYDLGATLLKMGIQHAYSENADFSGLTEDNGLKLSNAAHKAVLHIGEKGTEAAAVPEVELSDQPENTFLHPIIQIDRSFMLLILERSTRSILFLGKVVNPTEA
Test: Binding affinity to thyroxine binding globulin (unknown origin) relative to T4
Number in %, nothing else.

INSERT INTO measurements (molecule, unit_text, readout_value) VALUES
  ('N[C@@H](Cc1cc(I)c(Oc2ccc(O)c(I)c2)c(I)c1)C(=O)O', '%', 9),
  ('Cc1cc(Oc2c(I)cc(CC(N)C(=O)O)cc2I)cc(C)c1O (stereo unspecified)', '%', 0.29),
  ('NC(Cc1cc(I)c(Oc2ccc(O)c(O)c2)c(I)c1)C(=O)O (stereo unspecified)', '%', 0.06),
  ('NC(Cc1cc(I)c(Oc2cc(I)c(O)c(I)c2)c(I)c1)C(=O)O (stereo unspecified)', '%', 100),
  ('CCc1cc(Oc2c(I)cc(CC(N)C(=O)O)cc2I)ccc1O (stereo unspecified)', '%', 1.59);

Requested field: RBA. Item: NC(Cc1cc(I)c(Oc2ccc(O)c(-c3ccccc3)c2)c(I)c1)C(=O)O (stereo unspecified)
0.04

Requested field: RBA. Item: CC(C)c1cc(Oc2c(I)cc(CC(N)C(=O)O)cc2I)ccc1O (stereo unspecified)
3.53

Requested field: RBA. Item: NC(Cc1cc(I)c(Oc2ccc(O)cc2)c(I)c1)C(=O)O (stereo unspecified)
0.07

Requested field: RBA. Item: CC(C)(C)c1cc(Oc2c(I)cc(CC(N)C(=O)O)cc2I)ccc1O (stereo unspecified)
0.67

Requested field: RBA. Item: CC(C)Cc1cc(Oc2c(I)cc(CC(N)C(=O)O)cc2I)ccc1O (stereo unspecified)
0.1

Requested field: RBA. Item: Cc1cc(Oc2c(I)cc(CC(N)C(=O)O)cc2I)ccc1O (stereo unspecified)
0.28

----------
Biological target: Thyroxine-binding globulin (Homo sapiens)
Sequence (whole entry): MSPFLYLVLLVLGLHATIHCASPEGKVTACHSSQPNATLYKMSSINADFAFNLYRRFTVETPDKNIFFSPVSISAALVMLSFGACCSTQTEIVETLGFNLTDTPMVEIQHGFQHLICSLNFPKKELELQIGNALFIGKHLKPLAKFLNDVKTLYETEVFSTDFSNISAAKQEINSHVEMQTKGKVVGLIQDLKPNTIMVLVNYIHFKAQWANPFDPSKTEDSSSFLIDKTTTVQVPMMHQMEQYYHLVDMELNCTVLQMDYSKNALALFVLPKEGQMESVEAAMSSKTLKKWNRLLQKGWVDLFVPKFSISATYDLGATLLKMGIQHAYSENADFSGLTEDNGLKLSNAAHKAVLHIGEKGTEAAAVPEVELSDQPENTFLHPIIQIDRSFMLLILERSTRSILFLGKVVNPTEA
Assay: Binding affinity to thyroxine binding globulin (unknown origin) relative to T4
measurement.type: log(%)
The reply should be a number, written without any unit.

Example results:
INSERT INTO assay_data (compound, target_desc, measurement_type, readout_value) VALUES
  ('CCc1cc(Oc2c(I)cc(CC(N)C(=O)O)cc2I)ccc1O (stereo unspecified)', 'Thyroxine-binding globulin (Homo sapiens)', 'log(%)', 0.201),
  ('Cc1cc(Oc2c(I)cc(CC(N)C(=O)O)cc2I)ccc1O (stereo unspecified)', 'Thyroxine-binding globulin (Homo sapiens)', 'log(%)', -0.553),
  ('Cc1cc(Oc2c(I)cc(CC(N)C(=O)O)cc2I)cc(C)c1O (stereo unspecified)', 'Thyroxine-binding globulin (Homo sapiens)', 'log(%)', -0.538);

Requested field: log(%). Item: NC(Cc1cc(I)c(Oc2ccc(O)c(-c3ccccc3)c2)c(I)c1)C(=O)O (stereo unspecified)
-1.4

Requested field: log(%). Item: NC(Cc1cc(I)c(Oc2ccc(O)cc2)c(I)c1)C(=O)O (stereo unspecified)
-1.16

Requested field: log(%). Item: N[C@@H](Cc1cc(I)c(Oc2ccc(O)c(I)c2)c(I)c1)C(=O)O
0.954

Requested field: log(%). Item: NC(Cc1cc(I)c(Oc2ccc(O)c(O)c2)c(I)c1)C(=O)O (stereo unspecified)
-1.22

Requested field: log(%). Item: CC(C)(C)c1cc(Oc2c(I)cc(CC(N)C(=O)O)cc2I)ccc1O (stereo unspecified)
-0.174

Requested field: log(%). Item: NC(Cc1cc(I)c(Oc2cc(I)c(O)c(I)c2)c(I)c1)C(=O)O (stereo unspecified)
2

Requested field: log(%). Item: CC(C)Cc1cc(Oc2c(I)cc(CC(N)C(=O)O)cc2I)ccc1O (stereo unspecified)
-1

Requested field: log(%). Item: CC(C)c1cc(Oc2c(I)cc(CC(N)C(=O)O)cc2I)ccc1O (stereo unspecified)
0.548
